Could you please report measured switch fluorescence ratio for the items listed next?
Test system: ATP;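 note: ATP exposure 15 min at 22 °C before imaging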
assay-method-text: switch fluorescence ratio, 500 uM ATP over buffer (Cy3 cluster intensity, sum of 5 cycles each) (fold (ratio)); higher = stronger signal-on switching upon ATP binding; sequences stand for … in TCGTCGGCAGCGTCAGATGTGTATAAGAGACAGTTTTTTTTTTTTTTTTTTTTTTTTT…TC
measurement-parameters: aptamer strand: ATP DNA aptamer (quencher-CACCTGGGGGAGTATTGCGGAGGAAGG + anchor), 100 nM annealed; ATP concentration: 500 uM
Answers are plain numbers.

// known answers, use as guide
GGATTGATTT
0.993
GATTTGGCGA
0.992
ACTAGGCAAG
1.13
TTTTAGAGGT
0.96
TTCGGGAGAG
0.996
CGAGTCGGGA
0.999

State recorded switch fluorescence ratio for all listed sequences.
1. ATTTCAACGT
2. ATGGGAGGTG

A:
1: 0.988; 2: 1.01

State recorded switch fluorescence ratio for all listed sequences.
1. CGGGTAGGTA
2. TTTTCTTTT
3. AAAAGAGAAG
4. TTTGATAGGA

A:
[1, 1.02, 1, 0.975]

State recorded switch fluorescence ratio for all listed sequences.
1. AAGAGACAGG
2. CGTTAGATGG

A:
1.05
1.01

----------
System: ATP;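 note: ATP exposure 15 min at 22 °C before imaging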
assay-method-text: switch fluorescence ratio, 500 uM ATP over buffer (Cy3 cluster intensity, sum of 5 cycles each) (fold (ratio)); higher = stronger signal-on switching upon ATP binding; sequences stand for … in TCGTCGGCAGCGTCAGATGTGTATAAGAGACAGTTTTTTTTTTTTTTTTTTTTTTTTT…TC
measurement-parameters: aptamer strand: ATP DNA aptamer (quencher-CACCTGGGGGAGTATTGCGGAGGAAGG + anchor), 100 nM annealed; ATP concentration: 500 uM
reported-endpoint: switch fluorescence ratio
One number for each entry.

// known answers, use as guide
GGGTTGGGTC
0.996
AATATCTCAC
1.02
AGGGTGTGCC
1.01
GGTGGGGGTC
1.02
TGATTTGGCT
1.02
TGGGTGCGG
0.984

State recorded switch fluorescence ratio for all listed sequences.
1. TAAGGTTGGT
2. ATGTCGACTA
3. TAATGGTT
4. GGGGGCCGTC
5. TTTTCATTCA
6. TTTGCGGCGT

A:
0.987
1.02
0.979
1.01
1.02
0.986

State recorded switch fluorescence ratio for all listed sequences.
1. AGGTTTTTGA
2. GTTGCTGGGG
3. TTGTTTCGGT
4. AAGATTTGAG
5. CATCTACTGG
6. GGGACTAGAG
7. AATCCCTTTT

A:
[0.991, 0.998, 1.02, 0.992, 1.01, 0.974, 1]

----------
System: ATP;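 note: ATP exposure 15 min at 22 °C before imaging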
assay-method-text: switch fluorescence ratio, 500 uM ATP over buffer (Cy3 cluster intensity, sum of 5 cycles each) (fold (ratio)); higher = stronger signal-on switching upon ATP binding; sequences stand for … in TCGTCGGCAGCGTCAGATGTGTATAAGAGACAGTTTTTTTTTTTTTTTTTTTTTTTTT…TC
measurement-parameters: aptamer strand: ATP DNA aptamer (quencher-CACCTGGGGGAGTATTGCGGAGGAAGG + anchor), 100 nM annealed; ATP concentration: 500 uM
reported-endpoint: switch fluorescence ratio

CATATTGGAT
1.02
GGGTTCGACA
0.998
TATGGGGTTT
1.01
GGAGTCAGAA
0.995

State recorded switch fluorescence ratio for all listed sequences.
1. GCGATTTTTA
2. TAATTTATAC

A:
1. 1.09
2. 1.05

State recorded switch fluorescence ratio for all listed sequences.
1. TAAGGAGGAT
2. TTTATTCGGT
3. GCCTTGGTGC
4. GAAGGAACCG
5. CGTACTCGTA

A:
1. 1
2. 1.01
3. 1.08
4. 1.03
5. 1.01

State recorded switch fluorescence ratio for all listed sequences.
1. GGCCTATGTC
2. GGGGATGTTG
3. CGGAAAGAAG
4. GGTCTGCGCG
5. ATTAAAAGGT
6. GTTCTGGGGT
7. AAATTATAGG
8. GGAGTACTGT

A:
1.04
0.996
0.989
1.02
1
1
1.01
1.02

State recorded switch fluorescence ratio for all listed sequences.
1. CTTATTGGGT
2. CTGTTCTGTG
3. CGCCGGGAGG
4. GATGAAGTTG
5. GAAATATCAG
6. TTATCGTGTT

A:
1. 0.993
2. 0.951
3. 0.989
4. 0.971
5. 1.01
6. 0.984

State recorded switch fluorescence ratio for all listed sequences.
1. ACTGCAGAAC
2. GTCATCATGG
3. AGTACGGATA
4. TTCGGGGTTG
5. GCAAGTGTTC
6. TTTTTCCTAC
7. GAGGCGACTG

A:
1: 1.9; 2: 0.986; 3: 1.03; 4: 0.96; 5: 1.01; 6: 1; 7: 1.03

----------
Tested on: ATP;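 note: ATP exposure 15 min at 22 °C before imaging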
assay-method-text: switch fluorescence ratio, 500 uM ATP over buffer (Cy3 cluster intensity, sum of 5 cycles each) (fold (ratio)); higher = stronger signal-on switching upon ATP binding; sequences stand for … in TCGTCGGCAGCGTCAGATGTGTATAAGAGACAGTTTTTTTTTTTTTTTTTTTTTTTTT…TC
measurement-parameters: aptamer strand: ATP DNA aptamer (quencher-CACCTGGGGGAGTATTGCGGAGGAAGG + anchor), 100 nM annealed; ATP concentration: 500 uM
Could you please report measured switch fluorescence ratio for the items listed next?
Answers are plain numbers.

// known answers, use as guide
ATCAATCTCG
1.02
TCAAGCCATT
0.989
CGGGTTTGTC
1
CTGTGGGCTG
0.989
ATCAAGGGTT
0.991
GAGGTTCGCT
0.979
GGGGGTGTTC
0.991
GTAGATTGG
0.987
GGCTAATTTT
1.02
TTTTTGGTA
0.985

State recorded switch fluorescence ratio for all listed sequences.
1. GACTGTTGTC
2. CGGGCTAAGA
3. AAGCTTGTGT
4. TACGGGTATA
5. TTTATTATGT
6. AGCAGTGGAC
7. AGGATGCATT
8. TTTCCAGTAA

A:
0.997
1.02
0.997
1.01
0.994
1.23
1.8
1.04

----------
Tested on: ATP;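 note: ATP exposure 15 min at 22 °C before imaging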
assay-method-text: switch fluorescence ratio, 500 uM ATP over buffer (Cy3 cluster intensity, sum of 5 cycles each) (fold (ratio)); higher = stronger signal-on switching upon ATP binding; sequences stand for … in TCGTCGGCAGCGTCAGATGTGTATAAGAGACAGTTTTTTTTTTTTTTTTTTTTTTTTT…TC
measurement-parameters: aptamer strand: ATP DNA aptamer (quencher-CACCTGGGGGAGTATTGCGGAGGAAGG + anchor), 100 nM annealed; ATP concentration: 500 uM
reported-endpoint: switch fluorescence ratio
Numbers only.

GGTGGCAAGG
0.991

State recorded switch fluorescence ratio for all listed sequences.
1. TGTGGGTCCG
2. TGGGTTGATT

A:
1. 1
2. 1.01

State recorded switch fluorescence ratio for all listed sequences.
1. GGTGGGGTAT
2. TTGTTTGATA
3. TTGATGAGTG
4. TACGATGAGT
5. TGGTTATTTT
6. TTATTAGTAT

A:
1: 0.98; 2: 0.988; 3: 1.01; 4: 0.996; 5: 0.998; 6: 1.02

State recorded switch fluorescence ratio for all listed sequences.
1. CGGATGTGGT
2. GAAAGGAGGG
3. AGGTCCGACG
4. TGAACATTTG
5. CGCGTGCAGG
6. TTTTTTGTTT
7. TGACATAGGA
8. TGAAAATTGA

A:
0.973
1.03
0.967
1.03
1.02
1
1
0.999

State recorded switch fluorescence ratio for all listed sequences.
1. GGGGTTACAT
2. AGCTTGGGAA
3. GGGTCCCCGC
4. GAACTAAGCT

A:
1. 0.992
2. 0.963
3. 1.12
4. 1.01

----------
Test system: ATP;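 note: ATP exposure 15 min at 22 °C before imaging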
assay-method-text: switch fluorescence ratio, 500 uM ATP over buffer (Cy3 cluster intensity, sum of 5 cycles each) (fold (ratio)); higher = stronger signal-on switching upon ATP binding; sequences stand for … in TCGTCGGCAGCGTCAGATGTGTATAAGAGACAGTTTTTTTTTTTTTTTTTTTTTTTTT…TC
measurement-parameters: aptamer strand: ATP DNA aptamer (quencher-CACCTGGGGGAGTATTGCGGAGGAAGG + anchor), 100 nM annealed; ATP concentration: 500 uM
reported-endpoint: switch fluorescence ratio
Numbers only.

GGCTAAGGTC
1

State recorded switch fluorescence ratio for all listed sequences.
1. GGAGTTAAGT
2. GATTAAAAGG
3. TCTTATCTTG
4. ATGTATTAAG

A:
1. 0.987
2. 1.02
3. 0.978
4. 0.98

State recorded switch fluorescence ratio for all listed sequences.
1. AATTGGCGTA
2. CATTTGATCC
3. GAAGGGGAAA
4. TTGGTGGGTG
5. TTTGAATATA

A:
1.01
0.978
1
1.01
0.985

State recorded switch fluorescence ratio for all listed sequences.
1. CTGGGTTTTT
2. GGGGGGCCAT
3. TGAGCGGTCA
4. AATTGCTTGT
5. ATGTTAGTCG
6. TTGAACGAGC

A:
1: 0.992; 2: 1.01; 3: 0.99; 4: 0.978; 5: 1.01; 6: 0.99
